pIC50 values, listed per item
ASSAY_SYSTEM: human TSHR (Homo sapiens, UniProt P16473)
Sequence (P16473 21-764): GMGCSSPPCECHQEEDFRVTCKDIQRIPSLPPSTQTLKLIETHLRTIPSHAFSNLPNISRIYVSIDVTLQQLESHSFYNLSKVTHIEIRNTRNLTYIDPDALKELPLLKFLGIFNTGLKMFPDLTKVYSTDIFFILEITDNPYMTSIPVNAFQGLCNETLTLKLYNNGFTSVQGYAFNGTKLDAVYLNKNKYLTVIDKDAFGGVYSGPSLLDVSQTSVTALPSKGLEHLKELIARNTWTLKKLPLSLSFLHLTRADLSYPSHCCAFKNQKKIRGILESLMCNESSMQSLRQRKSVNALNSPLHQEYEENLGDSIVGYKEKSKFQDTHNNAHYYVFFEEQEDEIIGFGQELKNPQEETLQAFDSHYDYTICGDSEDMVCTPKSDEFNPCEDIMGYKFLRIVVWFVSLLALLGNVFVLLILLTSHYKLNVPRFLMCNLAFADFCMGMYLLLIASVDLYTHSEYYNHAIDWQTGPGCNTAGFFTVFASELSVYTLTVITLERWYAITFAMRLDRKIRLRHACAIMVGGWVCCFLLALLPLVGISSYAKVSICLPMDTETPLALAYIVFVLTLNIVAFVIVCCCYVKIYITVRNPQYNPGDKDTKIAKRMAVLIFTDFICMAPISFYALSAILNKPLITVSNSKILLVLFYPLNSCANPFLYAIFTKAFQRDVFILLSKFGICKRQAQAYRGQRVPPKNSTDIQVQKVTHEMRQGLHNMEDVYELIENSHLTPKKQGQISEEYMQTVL
PROCEDURE_TEXT: Measurement of antagonist activity using TSH-induced cAMP production in human TSHR-stably expressing CHO cells
EXPERIMENTAL_CONDITIONS: human TSH final concentration 50 ng/mL
pIC50: −log10 of the molar value.

[
  {
    "STRUCTURE_SMILES_STRING": "NC(=O)N[C@@H]1Cc2sccc2N(Cc2cc(C(F)(F)F)ccc2F)C1=O",
    "pIC50": "> 5.52"
  },
  {
    "STRUCTURE_SMILES_STRING": "Cc1ccc(NC(=O)N2CCC2)c(=O)n1Cc1cc(C(F)(F)F)cc(Cl)c1F",
    "pIC50": "> 5.52"
  },
  {
    "STRUCTURE_SMILES_STRING": "Cc1nc2c(s1)N(Cc1cc(C(F)(F)F)ccc1F)C(=O)[C@H](NC(N)=O)C2",
    "pIC50": "4.52 to 5.52"
  }
]

Consider the additional compound presented here.
q: Entry `Cc1ccc(NC(N)=O)c(=O)n1Cc1cc(C(F)(F)F)cc(Cl)c1F` : reported pIC50 = ?
a: > 5.52

====

ASSAY_SYSTEM: human TSHR (Homo sapiens, UniProt P16473)
PROCEDURE_TEXT: Measurement of antagonist activity using TSH-induced cAMP production in human TSHR-stably expressing CHO cells
EXPERIMENTAL_CONDITIONS: human TSH final concentration 50 ng/mL
PROPERTY_MEASURED: IC50

Please review the entries below; each comes with its answer.
[
  {
    "COMPOUND": "C[C@@H]1CC[C@@H](NC(N)=O)C(=O)N1Cc1cc(Br)ccc1F (relative stereo)",
    "RESULT": "3 to 30 µM"
  },
  {
    "COMPOUND": "NC(=O)N[C@@H]1CC[C@@H](C(F)(F)F)N(Cc2cc(C(F)F)ccc2F)C1=O",
    "RESULT": "< 3 µM"
  }
]

Consider the additional compound presented here.
q: Which measured IC50 belongs to `NC(=O)N[C@@H]1Cc2ccccc2N(CC2CCCCC2)C1=O` , tested on human TSHR (Homo sapiens, UniProt P16473)?
a: > 30 µM

====

ASSAY_SYSTEM: human TSHR (Homo sapiens, UniProt P16473)
PROCEDURE_TEXT: Measurement of antagonist activity using TSH-induced cAMP production in human TSHR-stably expressing CHO cells
EXPERIMENTAL_CONDITIONS: human TSH final concentration 50 ng/mL
IC50 values, listed per item

[
  {
    "COMPOUND": "C[C@H]1CC[C@@H](NC(N)=O)C(=O)N1CCc1cccc(C(F)(F)F)c1 (relative stereo) [Example A-23]",
    "IC50": "3 to 30 µM"
  },
  {
    "COMPOUND": "CNC(=O)N[C@@H]1CC[C@@H](C(F)(F)F)N(Cc2cc(C(F)(F)F)ccc2F)C1=O [Example A-24]",
    "IC50": "< 3 µM"
  },
  {
    "COMPOUND": "CC(C)(C)OC(=O)Nc1ccc2c(c1)OC(CC(N)=O)C(=O)N2Cc1cc(C(F)(F)F)ccc1F (stereo not shown) [Example F-8]",
    "IC50": "< 3 µM"
  },
  {
    "COMPOUND": "C[C@@H]1CC[C@@H](NC(N)=O)C(=O)N1Cc1cc(OCc2ccccc2)ccc1F (relative stereo) [Example A-11]",
    "IC50": "< 3 µM"
  },
  {
    "COMPOUND": "NC(=O)N[C@@H]1Cc2ccccc2N(CCCc2ccccc2)C1=O [Example C-26]",
    "IC50": "> 30 µM"
  },
  {
    "COMPOUND": "CC(=O)N[C@@H]1CC[C@@H](C(F)F)N(Cc2cc(C(F)(F)F)ccc2F)C1=O [Example A-27]",
    "IC50": "3 to 30 µM"
  },
  {
    "COMPOUND": "COc1cccc(CN2C(=O)[C@H](NC(N)=O)Cc3ccccc32)c1 [Example C-3]",
    "IC50": "> 30 µM"
  },
  {
    "COMPOUND": "NC(=O)N[C@@H]1Cc2ccc(C(F)F)cc2N(Cc2cc(S(F)(F)(F)(F)F)ccc2F)C1=O [Example C-19]",
    "IC50": "< 3 µM"
  },
  {
    "COMPOUND": "NC(=O)N[C@@H]1Cc2c(F)cccc2N(Cc2cc(C(F)(F)F)ccc2F)C1=O [Example C-9]",
    "IC50": "< 3 µM"
  },
  {
    "COMPOUND": "COC[C@@H]1CC[C@@H](NC(N)=O)C(=O)N1Cc1cc(C(F)(F)F)ccc1F [Example D-6]",
    "IC50": "< 3 µM"
  }
]

Consider the additional compound presented here.
q: Entry NC(=O)CC1Oc2ccccc2N(Cc2cc(C(F)(F)F)ccc2F)C1=O (stereo not shown) [Example F-7] : reported IC50 = ?
a: > 30 µM
